B1: LINE1-mini (parent)
chain: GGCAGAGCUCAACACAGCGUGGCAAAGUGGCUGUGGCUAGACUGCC

- Variants of: B1
- Procedure Details: self-cleavage, relative activity (ratio to wild type); higher = more cleavage; in vitro, sequencing; the parent is a self-cleaving ribozyme
The threshold is inclusive: self-cleavage of exactly 0.09 counts as label 1; values below receive label 0.

Check the entry C3A U20G : does self-cleavage equal or exceed 0.09?
label 1

Kindly determine if self-cleavage recorded for G1A C13G is above or exactly 0.09.
label 1

Tell me whether self-cleavage is at least 0.09 here: A12G C23A
label 0

Say whether A14G G27U shows self-cleavage of 0.09 or more.
label 1

Could you please find out whether U20A U32G has self-cleavage that meets 0.09 or exceeds it?
label 0

Determine whether measured self-cleavage meets or exceeds 0.09 for U34A U43G
label 0

Quick check: does G7A G36A have self-cleavage greater than or equal to 0.09?
label 1

Test whether the variant G27U U43A records self-cleavage of 0.09 or higher.
label 1

Quick check, self-cleavage >= 0.09? U9G U34G
label 0

Reported self-cleavage at or above 0.09? C3G G40U
label 1

Exam item: decide whether the reported self-cleavage for A12G G35C is at least 0.09.
label 0

Is self-cleavage for C3A A24U at or above 0.09?
label 1

Determine whether this variant has self-cleavage no lower than 0.09: C13G A25G
label 1

Dear colleague, could you confirm whether U20A C42A has self-cleavage at or above 0.09?
label 1

Is self-cleavage at least 0.09? Consider A14G C15A
label 0

Please check the record A26G U43C and state if its self-cleavage is at or above 0.09.
label 0

self-cleavage >= 0.09 for G21C A39G ?
label 0

Could you please find out whether C15G A24C has self-cleavage that meets 0.09 or exceeds it?
label 0

Answer whether self-cleavage of C37U G40C is greater than or equal to 0.09.
label 1

hey, is self-cleavage for this one >= 0.09? G5A A24U
label 1

Kindly determine if self-cleavage recorded for G7A G40U is above or exactly 0.09.
label 1

Determine whether this variant has self-cleavage no lower than 0.09: A16U G33C
label 0

Does the variant C10G G33U have recorded self-cleavage that is 0.09 or more?
label 0

For this variant, is measured self-cleavage 0.09 or higher? C10G A26C
label 1

Is the recorded value of self-cleavage equal to or greater than 0.09 for this variant? G22C U38A
label 1

Could you please find out whether C13G A41C has self-cleavage that meets 0.09 or exceeds it?
label 0

Given U28C U34G , state whether its self-cleavage is at least 0.09.
label 1

Is self-cleavage for G17A G29A at or above 0.09?
label 1

# check: self-cleavage of C15G G29C is greater than or equal to 0.09
label 1

Reported self-cleavage at or above 0.09? U28A U34A
label 1

Is self-cleavage for U9A A16G at or above 0.09?
label 1

Hi team, for G21A G30C , is the recorded self-cleavage at or above 0.09?
label 1

Check the entry G19U C42G : does self-cleavage equal or exceed 0.09?
label 0

Does self-cleavage meet or surpass 0.09 for C13U G36C ?
label 1

Please indicate if the recorded self-cleavage for C18A C31U meets or exceeds 0.09.
label 0

Check if self-cleavage >= 0.09 (inclusive). Item: G5C C18U
label 0

Does the variant A39U A41C have recorded self-cleavage that is 0.09 or more?
label 1

Decide: is the reported value of self-cleavage for A16C U28G equal to or greater than 0.09?
label 0

Decide: self-cleavage of G1C A24G >= 0.09?
label 1

Does A4U U34A have a reported self-cleavage of at least 0.09?
label 0

// inclusive: self-cleavage at least 0.09? input: A4G U32C
label 1

Entry C10U U34C : is its self-cleavage no less than 0.09?
label 0

Item G1C C23G with self-cleavage of 0.09 or above?
label 0

Textbook exercise: given the entry A16C A26C , state whether its self-cleavage is greater than or equal to 0.09.
label 0
